Measured values drawn from paper PMC12362587 for this set.

Below, each entry is listed alongside its reported pIC50.
Study target: Vascular Endothelial Growth Factor Receptor-1 Flt-1 (VEGFR1) (FLT1) (Homo sapiens, UniProt P17948)
Sequence (P17948 27-1338): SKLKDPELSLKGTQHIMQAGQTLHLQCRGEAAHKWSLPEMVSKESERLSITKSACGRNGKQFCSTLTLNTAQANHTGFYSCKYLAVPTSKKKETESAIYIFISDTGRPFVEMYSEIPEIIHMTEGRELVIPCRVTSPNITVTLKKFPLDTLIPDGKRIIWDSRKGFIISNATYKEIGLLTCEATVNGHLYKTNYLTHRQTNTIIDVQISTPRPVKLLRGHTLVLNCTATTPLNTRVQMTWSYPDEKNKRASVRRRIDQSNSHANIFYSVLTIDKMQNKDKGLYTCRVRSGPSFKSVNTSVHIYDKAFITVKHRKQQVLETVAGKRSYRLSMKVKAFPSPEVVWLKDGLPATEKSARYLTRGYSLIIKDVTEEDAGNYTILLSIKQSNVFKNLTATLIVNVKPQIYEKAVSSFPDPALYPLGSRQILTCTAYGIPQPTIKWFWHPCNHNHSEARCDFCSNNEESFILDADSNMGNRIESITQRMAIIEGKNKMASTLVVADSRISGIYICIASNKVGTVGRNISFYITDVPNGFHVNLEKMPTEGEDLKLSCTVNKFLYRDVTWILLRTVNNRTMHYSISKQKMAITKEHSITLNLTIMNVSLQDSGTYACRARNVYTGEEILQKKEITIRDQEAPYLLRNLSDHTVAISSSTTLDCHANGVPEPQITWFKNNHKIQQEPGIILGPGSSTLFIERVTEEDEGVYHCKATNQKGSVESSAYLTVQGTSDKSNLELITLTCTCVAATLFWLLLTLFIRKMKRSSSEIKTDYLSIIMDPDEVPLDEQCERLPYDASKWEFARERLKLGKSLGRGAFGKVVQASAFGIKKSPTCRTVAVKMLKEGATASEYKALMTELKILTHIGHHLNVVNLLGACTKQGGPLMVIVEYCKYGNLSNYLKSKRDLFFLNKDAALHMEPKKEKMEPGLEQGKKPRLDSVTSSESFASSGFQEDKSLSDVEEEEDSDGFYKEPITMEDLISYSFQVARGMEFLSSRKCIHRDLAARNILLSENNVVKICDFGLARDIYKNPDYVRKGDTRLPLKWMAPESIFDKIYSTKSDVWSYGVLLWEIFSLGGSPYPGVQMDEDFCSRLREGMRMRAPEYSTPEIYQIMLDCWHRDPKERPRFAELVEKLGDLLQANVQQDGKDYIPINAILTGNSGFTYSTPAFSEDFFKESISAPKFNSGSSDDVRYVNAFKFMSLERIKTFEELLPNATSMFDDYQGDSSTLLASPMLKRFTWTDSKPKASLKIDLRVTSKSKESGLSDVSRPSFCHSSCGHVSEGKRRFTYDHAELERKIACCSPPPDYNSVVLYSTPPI
pIC50: −log10 of the molar value.

- CC(C)C[C@H]1C(=O)N(Cc2ccc(C(F)(F)F)cc2)c2ccccc2C(=O)N1Cc1ccc(C(F)(F)F)cc1 [Compound 31]: ≤ 4.52

Could you now look at the following compound, please?
Look up and report measured pIC50 for this entry: CC(C)C[C@@H](C(=O)OCc1ccccc1)N1Cc2ccccc2NC1=O [Compound 63]
≤ 4.52

----------
Below, each entry is listed alongside its reported EC50.
Study target: rat TRPA1 (Rattus norvegicus)
Sequence (Q6RI86 whole entry): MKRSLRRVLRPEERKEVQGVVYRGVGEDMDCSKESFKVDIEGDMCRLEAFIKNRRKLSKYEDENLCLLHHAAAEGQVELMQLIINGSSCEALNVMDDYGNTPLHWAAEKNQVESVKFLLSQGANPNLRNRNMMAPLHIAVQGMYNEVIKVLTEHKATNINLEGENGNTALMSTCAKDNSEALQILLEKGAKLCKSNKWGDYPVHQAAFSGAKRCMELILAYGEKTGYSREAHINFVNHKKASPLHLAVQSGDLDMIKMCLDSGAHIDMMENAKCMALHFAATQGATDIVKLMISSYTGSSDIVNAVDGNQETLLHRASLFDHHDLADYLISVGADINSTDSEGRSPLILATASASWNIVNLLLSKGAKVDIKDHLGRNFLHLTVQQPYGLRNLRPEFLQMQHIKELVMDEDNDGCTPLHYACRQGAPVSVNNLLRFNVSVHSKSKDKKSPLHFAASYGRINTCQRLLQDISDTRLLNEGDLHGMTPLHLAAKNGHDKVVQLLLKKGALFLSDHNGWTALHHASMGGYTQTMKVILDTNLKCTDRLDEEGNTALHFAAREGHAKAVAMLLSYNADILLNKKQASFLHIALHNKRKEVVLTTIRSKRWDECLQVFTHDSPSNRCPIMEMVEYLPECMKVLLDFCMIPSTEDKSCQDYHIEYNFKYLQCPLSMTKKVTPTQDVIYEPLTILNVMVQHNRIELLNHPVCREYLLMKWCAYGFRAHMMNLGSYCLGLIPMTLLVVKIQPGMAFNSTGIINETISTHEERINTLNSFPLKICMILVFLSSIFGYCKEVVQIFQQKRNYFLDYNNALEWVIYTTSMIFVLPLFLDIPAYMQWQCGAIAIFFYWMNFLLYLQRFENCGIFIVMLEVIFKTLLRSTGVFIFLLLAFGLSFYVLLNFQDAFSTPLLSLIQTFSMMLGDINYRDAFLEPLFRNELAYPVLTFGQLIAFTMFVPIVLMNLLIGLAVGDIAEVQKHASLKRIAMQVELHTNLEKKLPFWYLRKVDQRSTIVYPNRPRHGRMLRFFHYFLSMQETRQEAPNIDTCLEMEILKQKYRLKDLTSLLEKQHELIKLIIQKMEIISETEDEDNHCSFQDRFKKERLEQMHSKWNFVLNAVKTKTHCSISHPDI
Experiment description: Ca2+-imaging assay with Fluo-4 AM
Conditions: agonist effect, HEK-293 cells overexpressing rat TRPA1, Fluo-4 AM; read-out: EC50 or IC50, transient receptor potential A1
Answer in nM, number only, no unit symbol.

- CC(C)C[C@@H](C(=O)OCc1ccccc1)N1Cc2ccccc2NC1=O [Compound 63]: 2540

// fetch EC50; item: CC(C)C[C@H]1C(=O)N(Cc2ccc(C(F)(F)F)cc2)c2ccccc2C(=O)N1Cc1ccc(C(F)(F)F)cc1 [Compound 31] ; system: rat TRPA1 (Rattus norvegicus)
200

----------
Study target: Platelet-Derived Growth Factor Receptor-Beta (PDGFRB) (Homo sapiens, UniProt P09619)
Sequence (P09619 33-1106): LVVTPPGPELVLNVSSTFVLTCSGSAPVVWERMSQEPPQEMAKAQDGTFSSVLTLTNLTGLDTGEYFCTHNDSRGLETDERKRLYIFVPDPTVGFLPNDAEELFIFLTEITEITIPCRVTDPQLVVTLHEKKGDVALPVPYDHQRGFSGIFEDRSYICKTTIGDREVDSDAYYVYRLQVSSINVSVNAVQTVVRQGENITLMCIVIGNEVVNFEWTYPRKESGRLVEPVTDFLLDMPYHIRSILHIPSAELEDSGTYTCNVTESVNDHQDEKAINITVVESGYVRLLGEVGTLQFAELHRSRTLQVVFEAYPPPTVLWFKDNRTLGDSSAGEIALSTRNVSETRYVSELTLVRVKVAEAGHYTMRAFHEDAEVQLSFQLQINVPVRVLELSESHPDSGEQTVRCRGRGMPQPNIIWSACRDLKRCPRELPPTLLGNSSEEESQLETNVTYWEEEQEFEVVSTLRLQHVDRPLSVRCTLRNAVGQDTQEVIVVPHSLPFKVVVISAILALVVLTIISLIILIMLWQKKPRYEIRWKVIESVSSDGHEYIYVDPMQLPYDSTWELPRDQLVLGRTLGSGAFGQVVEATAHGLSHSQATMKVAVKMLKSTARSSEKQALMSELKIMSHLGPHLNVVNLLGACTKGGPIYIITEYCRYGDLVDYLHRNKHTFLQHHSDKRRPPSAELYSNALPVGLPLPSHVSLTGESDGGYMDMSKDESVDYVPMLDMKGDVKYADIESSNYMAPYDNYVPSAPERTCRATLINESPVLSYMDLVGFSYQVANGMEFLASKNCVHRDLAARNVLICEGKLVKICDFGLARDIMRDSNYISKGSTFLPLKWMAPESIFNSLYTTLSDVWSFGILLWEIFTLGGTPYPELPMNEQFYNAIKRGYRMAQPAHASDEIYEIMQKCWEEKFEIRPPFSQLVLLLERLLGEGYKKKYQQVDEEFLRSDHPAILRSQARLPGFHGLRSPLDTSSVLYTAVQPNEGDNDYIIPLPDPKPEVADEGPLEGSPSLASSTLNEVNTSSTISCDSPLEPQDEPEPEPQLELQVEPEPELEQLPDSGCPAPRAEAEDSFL
Observable: IC50

// fetch IC50; item: CC(C)C[C@@H](C(=O)OCc1ccccc1)N1Cc2ccccc2NC1=O [Compound 63] ; system: Platelet-Derived Growth Factor Receptor-Beta (PDGFRB) (Homo sapiens, UniProt P09619)
≥ 30 µM

----------
Study target: isocitrate dehydrogenase (IDH1 R132H) (Homo sapiens, UniProt O75874, R132H)
Sequence (O75874 whole entry R132H): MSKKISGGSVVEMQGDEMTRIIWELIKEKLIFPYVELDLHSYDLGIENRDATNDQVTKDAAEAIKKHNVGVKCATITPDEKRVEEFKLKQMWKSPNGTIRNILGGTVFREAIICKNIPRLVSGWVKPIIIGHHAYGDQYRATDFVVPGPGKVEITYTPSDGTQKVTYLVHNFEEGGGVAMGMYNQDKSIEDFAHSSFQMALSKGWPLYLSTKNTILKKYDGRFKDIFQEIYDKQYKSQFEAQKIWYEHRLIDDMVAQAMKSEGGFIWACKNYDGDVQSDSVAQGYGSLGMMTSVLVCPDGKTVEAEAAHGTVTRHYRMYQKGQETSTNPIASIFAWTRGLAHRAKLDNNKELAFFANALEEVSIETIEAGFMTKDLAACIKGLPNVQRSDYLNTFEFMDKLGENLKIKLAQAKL
Experiment description: IDH1 enzyme assay (R132H; BPS Bioscience)
Conditions: top concentration 30 μM, read-out: EC50 or IC50, isocitrate dehydrogenase
Observable: IC50 (µM)
Answer in µM, number only, no unit symbol.

Look up and report measured IC50 for this entry: `CC(C)C[C@H]1C(=O)N(Cc2ccc(C(F)(F)F)cc2)c2ccccc2C(=O)N1Cc1ccc(C(F)(F)F)cc1`
14.9

----------
Test system: A549
Experiment description: MTT cell viability assay
Assay type: cell-based
Conditions: Homo sapiens, 24 h, compounds 0.01–40 μM, read-out: In Vitro Cytotoxicity, EC50 ± SD, A549
Observable: pEC50
By convention, pEC50 is the negative base-10 log of a molar concentration.

• O=c1[nH]cc(F)c(=O)[nH]1 [Compound 5-FU, 5-fluorouracil, reference compound] = 7.33

Could you now look at the following compound, please?
// fetch pEC50; item: `CC(C)C[C@@H](C(=O)OCc1ccccc1)N1Cc2ccccc2NC1=O` ; system: A549
4.44

----------
Study target: protein-tyrosine kinase 6 (BRK) (Homo sapiens, UniProt Q13882)
Sequence (Q13882 whole entry): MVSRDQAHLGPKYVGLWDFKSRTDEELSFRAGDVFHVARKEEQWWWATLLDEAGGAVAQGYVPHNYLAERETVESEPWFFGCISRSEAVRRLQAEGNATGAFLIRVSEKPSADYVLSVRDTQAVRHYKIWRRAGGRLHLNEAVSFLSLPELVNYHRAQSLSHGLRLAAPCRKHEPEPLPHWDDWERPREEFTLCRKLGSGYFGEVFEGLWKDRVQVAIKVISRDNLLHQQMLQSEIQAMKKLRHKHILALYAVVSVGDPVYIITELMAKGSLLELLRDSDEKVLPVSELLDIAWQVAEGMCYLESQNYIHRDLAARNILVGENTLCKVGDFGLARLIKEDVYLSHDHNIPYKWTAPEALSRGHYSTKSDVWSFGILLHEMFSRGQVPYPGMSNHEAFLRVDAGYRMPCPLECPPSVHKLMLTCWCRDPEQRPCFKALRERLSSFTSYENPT
Observable: pIC50
By convention, pIC50 is the negative base-10 log of a molar concentration.

Look up and report measured pIC50 for this entry: `CC(C)C[C@@H](C(=O)OCc1ccccc1)N1Cc2ccccc2NC1=O`
4.54

----------
Below, each entry is listed alongside its reported IC50.
Study target: A1 Human Adenosine GPCR (Homo sapiens, UniProt P30542)
Construct: Eurofins (contract assay)
Sequence (P30542 whole entry): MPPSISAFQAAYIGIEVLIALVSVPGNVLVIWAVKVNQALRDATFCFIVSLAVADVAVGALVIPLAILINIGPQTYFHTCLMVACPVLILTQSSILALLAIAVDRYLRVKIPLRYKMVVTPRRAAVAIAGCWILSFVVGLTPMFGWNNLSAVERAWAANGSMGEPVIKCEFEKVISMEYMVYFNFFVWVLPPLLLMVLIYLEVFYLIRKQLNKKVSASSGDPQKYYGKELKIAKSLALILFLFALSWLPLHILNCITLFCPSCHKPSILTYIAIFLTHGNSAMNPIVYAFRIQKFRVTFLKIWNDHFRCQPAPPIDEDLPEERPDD
Experiment description: Binding Antagonist Radioligand LeadHunter Assay
Conditions: Eurofins, read-out: EC50 or IC50, A1 Human Adenosine GPCR, antagonist radioligand

- CC(C)C[C@@H](C(=O)OCc1ccccc1)N1Cc2ccccc2NC1=O: ≥ 30 µM

Could you now look at the following compound, please?
Look up and report measured IC50 for this entry: `CC(C)C[C@H]1C(=O)N(Cc2ccc(C(F)(F)F)cc2)c2ccccc2C(=O)N1Cc1ccc(C(F)(F)F)cc1`
≥ 30 µM
